biological target: HIS-TGFβR1 T204D (Homo sapiens (Human), UniProt P36897, T204D); assay: HTRF probe-displacement assay, HIS-TGFβR1 T204D; details: 1 hour at room temperature
Sequence (P36897 34-503 T204D): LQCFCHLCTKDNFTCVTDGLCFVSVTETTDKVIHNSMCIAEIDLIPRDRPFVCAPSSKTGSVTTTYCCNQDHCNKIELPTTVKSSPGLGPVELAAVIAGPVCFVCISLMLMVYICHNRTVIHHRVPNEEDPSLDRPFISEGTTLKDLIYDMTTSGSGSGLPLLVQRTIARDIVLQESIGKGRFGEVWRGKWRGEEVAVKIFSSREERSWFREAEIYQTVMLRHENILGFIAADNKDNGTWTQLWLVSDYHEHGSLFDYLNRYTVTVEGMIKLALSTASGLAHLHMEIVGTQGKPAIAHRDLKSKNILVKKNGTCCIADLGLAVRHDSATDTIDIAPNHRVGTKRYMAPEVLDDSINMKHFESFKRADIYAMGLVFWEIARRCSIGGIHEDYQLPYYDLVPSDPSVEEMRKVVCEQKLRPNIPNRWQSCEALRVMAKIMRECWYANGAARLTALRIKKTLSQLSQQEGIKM
pIC50: −log10 of the molar value.
Use t when the recorded pIC50 is no lower than 9; use f when it is lower.

Worked examples, 3 compounds total:
• Fc1c(Nc2nc(-c3cccc(C(F)F)n3)nn3cccc23)ccnc1Cl = f
• Fc1cnccc1Nc1nc(-c2ccc(F)c(C(F)F)n2)nn2cccc12 = t
• Fc1cnccc1Nc1nc(-c2ccccn2)nn2ccc(CNC3CCCNC3)c12 (centres unmarked) = f

Task: Item O=C(c1cnccc1Nc1nc(-c2cccc(C(F)F)n2)nn2cccc12)N1CCC(F)(F)CC1 with pIC50 of 9 or above?
Result: f
